Target: T1, rat NGF (rat, UniProt P25427 122-241)
T1 construct: also called rN
T1 sequence (P25427 122-241 limits assumed): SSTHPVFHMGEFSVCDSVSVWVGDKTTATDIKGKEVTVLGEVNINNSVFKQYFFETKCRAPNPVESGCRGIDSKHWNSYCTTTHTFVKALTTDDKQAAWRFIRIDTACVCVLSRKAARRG
Experiment: SPR (Biacore T200), 100 nM mAb on NGF chip, similarity to parent mAb
Source text: The region of an antibody responsible for antigen recognition represents the paratope. A paratope is created by a combination of amino acids in the complementarity determining regions (CDRs) of both the heavy and light chain variable regions. The binding between antibody and antigen is often mediated by side chains of CDR residues with side chains or carbohydrate moieties of the antigen. […]
# Percent Similarity Score (KD on rN) per entry
Write the answer as a number in %, unit excluded.

Worked cases, Percent Similarity Score (KD on rN) given:
{"columns": ["Binder", "Endpoint", "Reading"],
 "data": [
  ["can48L2VL_A98L (antibody, V domains shown, CDR scanning mutant of ZTS-842 (48L2)) VH: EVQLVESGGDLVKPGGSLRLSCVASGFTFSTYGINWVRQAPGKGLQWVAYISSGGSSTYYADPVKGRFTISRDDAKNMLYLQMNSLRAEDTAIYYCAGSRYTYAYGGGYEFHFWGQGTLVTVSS VL: QAVLNQPASVSGALGQKVTISCSGSTMDIDIFGVSWYQQLPGKAPKLLVDSDGDRPSGIPDRFSGSRSGNSGTLTITGLQAEDEADYHCQSGDSTLGLLAIFGGGTHVTVL", "Percent Similarity Score (KD on rN)", 98.4],
  ["can9L12VL_I31A (antibody, V domains shown) VH: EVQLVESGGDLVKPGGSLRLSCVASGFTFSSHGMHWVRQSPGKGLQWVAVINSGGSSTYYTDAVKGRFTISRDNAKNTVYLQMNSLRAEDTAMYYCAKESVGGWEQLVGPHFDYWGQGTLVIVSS VL: QSVLTQPTSVSGSLGQRVTISCSGSTNNIGALGASWYQLFPGKAPKLLVYGNGNRPSGVPDRFSGADSGDSVTLTITGLQAEDEADYYCQSFDTTLGAHVFGGGTHLTVL", "Percent Similarity Score (KD on rN)", 12.6]
]}

With those in mind, consider the next binder.
stdin: So what's the measured Percent Similarity Score (KD on rN) for this one? can48L2VL_S91A (antibody, V domains shown, CDR scanning mutant of ZTS-842 (48L2)) VH: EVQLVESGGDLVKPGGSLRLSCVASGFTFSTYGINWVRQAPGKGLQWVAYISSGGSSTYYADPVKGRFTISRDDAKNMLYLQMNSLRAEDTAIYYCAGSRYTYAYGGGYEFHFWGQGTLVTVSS VL: QAVLNQPASVSGALGQKVTISCSGSTMDIDIFGVSWYQQLPGKAPKLLVDSDGDRPSGIPDRFSGSRSGNSGTLTITGLQAEDEADYHCQAGDSTLGALAIFGGGTHVTVL
stdout: 76.7
